Data origin: ChEMBL document CHEMBL2163208

TARGET OF ASSAY: UniProtKB P11597
Sequence (P11597 whole entry): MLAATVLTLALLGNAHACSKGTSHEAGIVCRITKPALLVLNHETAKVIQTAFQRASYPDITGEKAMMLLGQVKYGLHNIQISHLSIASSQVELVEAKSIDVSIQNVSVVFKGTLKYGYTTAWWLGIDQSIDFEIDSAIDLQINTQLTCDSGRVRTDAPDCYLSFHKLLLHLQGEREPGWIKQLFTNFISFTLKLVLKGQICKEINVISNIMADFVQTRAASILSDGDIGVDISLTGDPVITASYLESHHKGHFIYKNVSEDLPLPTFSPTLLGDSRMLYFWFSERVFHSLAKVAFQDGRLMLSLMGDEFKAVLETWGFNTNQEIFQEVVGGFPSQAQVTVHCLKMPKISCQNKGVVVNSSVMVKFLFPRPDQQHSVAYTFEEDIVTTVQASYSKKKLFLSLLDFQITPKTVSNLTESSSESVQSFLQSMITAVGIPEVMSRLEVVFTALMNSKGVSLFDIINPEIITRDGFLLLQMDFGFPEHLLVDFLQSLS
ASSAY: Inhibition of CETP-mediated [3H]cholesteryl ester transfer activity in human plasma after 2.5 hrs by scintillation counter
pIC50: −log10 of the molar value.
Give class 1 when the value for pIC50 is at least 5. Give class 0 when it is less.

Input line: Item O=C(NC1CCCC1)N[C@@](Cc1ccccc1F)(c1cc(F)cc(C(F)(F)F)c1)c1ccc(Cl)cn1 with pIC50 of 5 or above?
Output line: class 1

Input line: Also need CC(C)(C)CC(=O)OC(Cc1ccccc1)(c1cccc(C(F)(F)F)c1)c1ccccn1 (racemic) , thanks.
Output line: class 0

Input line: Also need CC(C)(C)CC(=O)OC(Cc1ccccc1)(c1cccc(OC(F)(F)C(F)F)c1)c1ccccn1 (racemic) , thanks.
Output line: class 0

Input line: Also need O=C(NC1CCCC1)NC(Cc1ccccc1)(c1cccc(OC(F)(F)C(F)F)c1)c1ccc(Cl)cn1 (racemic) , thanks.
Output line: class 1
